Test system: pre-induced phospho-histone 2A (kinase activity of Bub1)
Experiment: H2A Abrogation-Assay (cell-based mechanistic assay, pre-treatment with Nocodazole)
Settings: Nocodazole 16 h, then test compound 1 h; read-out: Biological Assay 4:2: H2A Abrogation IC50
Kindly state pIC50 for each of the entries shown.
Expect pIC50 as a plain number equal to -log10 of the molar concentration.

# compound `CCOc1cc(F)c(Cn2nc(-c3ncc(OCCCO)c(Nc4ccnc(NC(C)=O)c4)n3)c3ccccc32)c(F)c1` ; its pIC50 = 8.36

# compound `CCOc1cc(F)c(Cn2nc(-c3ncc(OCCCO)c(Nc4cc(C)nc(C)n4)n3)c3ccccc32)c(F)c1` ; its pIC50 = 9.04

# compound `CCOc1cc(F)c(Cn2nc(-c3ncc(OCCCO)c(Nc4ccnc(NC(=O)C5CC5)c4)n3)c3ccccc32)c(F)c1` ; its pIC50 = 8.34

# compound `Cc1nccc(Nc2nc(-c3nn(Cc4c(F)cc(OCC5CC5)cc4F)c4ccccc34)ncc2OCCCO)n1` ; its pIC50 = 9.07

# compound `CCOc1cc(F)c(Cn2nc(-c3ncc(OCCCO)c(Nc4ccnc(C)n4)n3)c3ccccc32)c(F)c1` ; its pIC50 = 7.32

# compound `OCCCOc1cnc(-c2nn(Cc3c(F)cc(OCC4CC4)cc3F)c3ccccc23)nc1Nc1ccncc1Cl` ; its pIC50 = 7.19

Data provenance is patent US20170305882A1.
